# Tested on: SUDIPGVI (diffuse intrinsic pontine glioma line)
# ASSAY_NOTES: growth inhibition (% activity, log2 RLU normalised to DMSO / staurosporine); higher = more growth inhibition
# CONDITION_SET: 33 µM
QUANTITY_MEASURED: growth inhibition (%)
The answer is to be given in %; state only the numeric part.

Exercise: I have this compound here, CC(=O)Oc1ccc(C(c2ccc(OC(C)=O)cc2)c2ccccn2)cc1 , and I need its recorded growth inhibition.
Solution: 3.8

Exercise: One more compound: Cc1cc(C(C)(C)C)c(O)c(C)c1CC1=NCCN1
Solution: 1.88

Further cases:
Exercise: I have this compound here, CN(C)CCOc1ccc(/C(=C(/CCCl)c2ccccc2)c2ccccc2)cc1 , and I need its recorded growth inhibition.
Solution: 0.578

Exercise: One more compound: CCCCCCCCCC(=O)N[C@@H](Cc1c[nH]c2ccccc12)C(=O)N[C@@H](CC(N)=O)C(=O)N[C@@H](CC(=O)O)C(=O)N[C@@H]1C(=O)NCC(=O)N[C@@H](CCCN)C(=O)N[C@@H](CC(=O)O)C(=O)N[C@H](C)C(=O)N[C@@H](CC(=O)O)C(=O)NCC(=O)N[C@H](CO)C(=O)N[C@@H]([C@H](C)CC(=O)O)C(=O)N[C@@H](CC(=O)c2ccccc2N)C(=O)O[C@@H]1C
Solution: -3.09

Exercise: One more compound: NC(=O)N1c2ccccc2C=Cc2ccccc21
Solution: 1.8

Exercise: One more compound: CCC(NC(C)C)C(O)c1ccc(O)c(O)c1 (stereo unspecified)
Solution: 5.58

Exercise: One more compound: CC(=O)[C@H]1CC[C@H]2[C@@H]3CCC4=CC(=O)CC[C@]4(C)[C@H]3CC[C@]12C
Solution: 1.04

Exercise: One more compound: C=CC(=O)N1CCC[C@@H](n2nc(-c3ccc(Oc4ccccc4)cc3)c3c(N)ncnc32)C1
Solution: 2.15

Exercise: One more compound: CCCc1nc(C(C)(C)O)c(C(=O)OCc2oc(=O)oc2C)n1Cc1ccc(-c2ccccc2-c2nnn[nH]2)cc1
Solution: -2.12

Exercise: One more compound: COc1ccc([C@@H]2Sc3ccccc3N(CCN(C)C)C(=O)[C@@H]2OC(C)=O)cc1
Solution: -1.92

Exercise: One more compound: CCCOc1ccc2[nH]c(NC(=O)OC)nc2c1
Solution: -1.9

Exercise: One more compound: CN(C)[C@@H](CCOc1cccc2ccccc12)c1ccccc1
Solution: -2.24

Exercise: One more compound: C[C@@H](O)[C@H]1C(=O)N2C(C(=O)O)=C(S[C@@H]3CN[C@H](CNS(N)(=O)=O)C3)[C@H](C)[C@H]12
Solution: -5.58

Exercise: One more compound: CCC(CC)[C@H](NC(C)=O)[C@@H]1[C@H](O)[C@@H](C(=O)O)C[C@H]1NC(=N)N
Solution: -0.749

Exercise: One more compound: CC(C)OC(=O)OCOP(=O)(CO[C@H](C)Cn1cnc2c(N)ncnc21)OCOC(=O)OC(C)C
Solution: 0.813

Exercise: One more compound: C[C@@H](O[C@H]1OCCN(Cc2nn(P(=O)(O)O)c(=O)[nH]2)[C@H]1c1ccc(F)cc1)c1cc(C(F)(F)F)cc(C(F)(F)F)c1
Solution: 3.61
